target: VLA4 (Homo sapiens, UniProt P05556+P13612); construct: endogenous in cells; host or cells: Ramos cells; assay: Inhibition of VLA4-dependent adhesion to BSA-CS1 (fluorescently labelled Ramos cells); type: cell-based; conditions: binding of BCECF-labelled Ramos cells to CS1 peptide-coated wells, 2 mM MnCl2, 30 minutes at room temperature
Sequence (P13612 34-1032): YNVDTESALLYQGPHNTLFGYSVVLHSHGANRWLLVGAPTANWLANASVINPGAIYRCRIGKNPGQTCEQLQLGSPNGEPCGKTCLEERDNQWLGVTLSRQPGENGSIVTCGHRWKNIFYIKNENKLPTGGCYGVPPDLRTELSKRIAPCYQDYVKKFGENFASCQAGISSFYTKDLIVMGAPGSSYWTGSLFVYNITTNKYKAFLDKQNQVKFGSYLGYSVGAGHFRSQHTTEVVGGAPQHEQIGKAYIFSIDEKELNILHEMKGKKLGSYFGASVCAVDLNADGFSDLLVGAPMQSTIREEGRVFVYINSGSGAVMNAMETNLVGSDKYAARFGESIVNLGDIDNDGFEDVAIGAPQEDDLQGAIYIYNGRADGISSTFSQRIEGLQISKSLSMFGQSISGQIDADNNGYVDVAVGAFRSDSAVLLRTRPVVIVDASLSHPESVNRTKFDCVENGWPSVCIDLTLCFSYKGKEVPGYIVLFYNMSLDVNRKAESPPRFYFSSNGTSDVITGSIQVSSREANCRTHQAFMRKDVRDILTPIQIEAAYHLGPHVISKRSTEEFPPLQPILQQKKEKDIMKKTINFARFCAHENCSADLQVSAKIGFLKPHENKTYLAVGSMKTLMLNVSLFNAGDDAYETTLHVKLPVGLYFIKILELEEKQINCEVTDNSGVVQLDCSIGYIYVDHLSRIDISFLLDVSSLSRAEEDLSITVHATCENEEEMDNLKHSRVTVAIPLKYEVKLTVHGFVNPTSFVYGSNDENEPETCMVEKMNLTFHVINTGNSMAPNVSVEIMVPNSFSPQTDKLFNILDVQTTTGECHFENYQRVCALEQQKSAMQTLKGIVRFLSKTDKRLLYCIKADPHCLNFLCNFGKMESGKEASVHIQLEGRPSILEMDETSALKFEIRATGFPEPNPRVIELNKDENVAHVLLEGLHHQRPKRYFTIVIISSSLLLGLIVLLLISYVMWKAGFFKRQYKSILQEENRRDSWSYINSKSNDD
Sequence (P05556 21-798): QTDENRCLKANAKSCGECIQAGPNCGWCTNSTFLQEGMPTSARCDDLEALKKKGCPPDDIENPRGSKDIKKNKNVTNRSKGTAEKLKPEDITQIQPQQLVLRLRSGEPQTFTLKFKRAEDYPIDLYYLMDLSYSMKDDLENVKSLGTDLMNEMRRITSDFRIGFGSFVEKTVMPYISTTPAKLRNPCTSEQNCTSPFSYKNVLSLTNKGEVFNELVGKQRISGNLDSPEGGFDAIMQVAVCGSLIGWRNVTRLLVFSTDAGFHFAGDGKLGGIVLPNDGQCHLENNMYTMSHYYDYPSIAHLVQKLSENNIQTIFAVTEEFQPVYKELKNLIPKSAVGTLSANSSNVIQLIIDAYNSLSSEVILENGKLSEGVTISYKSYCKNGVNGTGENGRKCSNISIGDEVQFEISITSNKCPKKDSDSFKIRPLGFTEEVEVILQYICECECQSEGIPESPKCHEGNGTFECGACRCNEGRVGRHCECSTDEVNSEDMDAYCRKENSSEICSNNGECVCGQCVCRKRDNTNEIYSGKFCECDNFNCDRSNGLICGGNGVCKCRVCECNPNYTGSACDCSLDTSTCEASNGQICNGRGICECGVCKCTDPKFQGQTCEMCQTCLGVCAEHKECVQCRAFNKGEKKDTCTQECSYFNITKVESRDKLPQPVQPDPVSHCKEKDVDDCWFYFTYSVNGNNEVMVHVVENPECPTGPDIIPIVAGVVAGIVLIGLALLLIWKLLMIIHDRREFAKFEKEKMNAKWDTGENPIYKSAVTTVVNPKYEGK
pIC50: −log10 of the molar value.
Below, each entry is listed with its recorded pIC50.

Recorded result, COc1ccc(C(CC(=O)O)NC(=O)C(CC(C)C)NC(=O)Cc2ccc(NC(=O)Nc3ccccc3C)cc2)cc1OC (stereo not shown) , pIC50: > 7.30

Recorded result, CC(C)CC(NC(=O)Cc1ccc(NC(=O)NC(C)(C)C)cc1)C(=O)NC(CC(=O)O)c1ccc2c(c1)OCO2 (stereo not shown) , pIC50: 5.00 to 7.30

Recorded result, CSCCC(NC(=O)Cc1ccc(NC(=O)Nc2ccccn2)cc1)C(=O)NC(CC(=O)O)c1ccc2c(c1)OCO2 (stereo not shown) , pIC50: > 7.30

Now consider a different compound.
Recorded result, CC(C)CC(NC(=O)Cc1ccc(NC(=S)Nc2ccccc2)cc1)C(=O)NC(CC(=O)O)c1ccc2c(c1)OCO2 (stereo not shown) , pIC50: 5.00 to 7.30
